- target-desc: T1, IL-18 receptors on HEK-Blue IL-18 reporter cells (UniProt Q13478 19-541; O95256 20-599, limits assumed); note: unit not given here
- T1 sequence (looked up) 1: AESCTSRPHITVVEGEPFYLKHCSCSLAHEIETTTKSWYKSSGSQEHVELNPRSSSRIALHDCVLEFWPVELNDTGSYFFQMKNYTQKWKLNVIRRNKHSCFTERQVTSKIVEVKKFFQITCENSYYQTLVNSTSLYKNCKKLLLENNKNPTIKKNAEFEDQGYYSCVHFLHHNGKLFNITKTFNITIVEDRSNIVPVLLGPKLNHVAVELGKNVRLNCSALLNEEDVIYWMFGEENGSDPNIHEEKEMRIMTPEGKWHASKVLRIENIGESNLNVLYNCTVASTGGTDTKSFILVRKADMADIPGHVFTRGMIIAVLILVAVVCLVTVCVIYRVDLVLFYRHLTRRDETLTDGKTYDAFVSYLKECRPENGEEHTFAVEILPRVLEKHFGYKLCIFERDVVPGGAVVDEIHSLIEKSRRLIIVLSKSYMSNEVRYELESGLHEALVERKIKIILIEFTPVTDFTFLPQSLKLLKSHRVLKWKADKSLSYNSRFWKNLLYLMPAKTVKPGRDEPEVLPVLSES
- T1 sequence (looked up) 2: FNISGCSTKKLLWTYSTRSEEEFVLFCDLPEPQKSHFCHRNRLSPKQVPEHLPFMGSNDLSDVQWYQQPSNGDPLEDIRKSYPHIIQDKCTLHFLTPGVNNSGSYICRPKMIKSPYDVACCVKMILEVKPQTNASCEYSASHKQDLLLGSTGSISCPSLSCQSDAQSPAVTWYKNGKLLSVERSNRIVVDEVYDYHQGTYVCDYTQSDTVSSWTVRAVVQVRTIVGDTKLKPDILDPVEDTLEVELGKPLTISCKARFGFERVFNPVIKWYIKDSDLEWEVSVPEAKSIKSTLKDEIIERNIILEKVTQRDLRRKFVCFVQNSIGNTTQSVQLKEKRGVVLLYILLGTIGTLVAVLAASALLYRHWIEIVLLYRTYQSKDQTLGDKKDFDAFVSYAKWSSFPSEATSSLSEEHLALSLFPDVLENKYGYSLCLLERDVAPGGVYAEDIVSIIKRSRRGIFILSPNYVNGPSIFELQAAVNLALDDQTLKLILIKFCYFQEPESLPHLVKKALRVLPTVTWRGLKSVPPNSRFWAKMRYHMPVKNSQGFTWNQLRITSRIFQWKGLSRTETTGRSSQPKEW
- assay-method-text: cell-based or functional assay
measured-quantity: Activity, No BP, DF-500000
Give bare numbers.

binder	measured-quantity	numeric-result
IL-18 variant G3Q, E6K, D54S, S55P, T63S, N91S, R104Q (ligand) YFQKLKSKLSVIRNLNDQVLFIDQGNRPLFEDMTDSDMRDNAPRTIFIISMYKSPQPRGMAVSISVKSEKISTLSSENKIISFKEMNPPDSIKDTKSDIIFFQQSVPGHDNKMQFESSSYEGYFLASEKERDLFKLILKKEDELGDRSIMFTVQNED	Activity, No BP, DF-500000	1.92

Return Activity, No BP, DF-500000 (reported value) for this binder: IL-18 variant G3S, E6Q, K53S, D54Y, S55H, N91L, R104Q (ligand) YFSKLQSKLSVIRNLNDQVLFIDQGNRPLFEDMTDSDMRDNAPRTIFIISMYSYHQPRGMAVTISVKSEKISTLSSENKIISFKEMNPPDLIKDTKSDIIFFQQSVPGHDNKMQFESSSYEGYFLASEKERDLFKLILKKEDELGDRSIMFTVQNED 0.16

Attribution: patent US20240182536A1
